The values you see were collected from ChEMBL document CHEMBL4265910.

System: HepG2
protocolDescription: Antiproliferative activity against human HepG2 cells after 72 hrs by MTT assay
Type: functional, cell-based
conditionSet: HepG2, 72 h
pIC50: −log10 of the molar value.
resultType: pIC50

Below: 5 molecules and their reported pIC50.
# molecule, experimentalTarget, numericReadout
records = [
    ("COc1ccc(N/N=C(\\C#N)C(=O)c2cc(OC)c(OC)c(OC)c2)cc1O", "HepG2", 6.49),
    ("COc1ccc(N/N=C(\\C#N)C(=O)c2cc(OC)c(OC)c(OC)c2)cc1", "HepG2", 6.36),
    ("COc1ccc(N/C=C(\\C#N)C(=O)c2cc(OC)c(OC)c(OC)c2)cc1", "HepG2", 5.86),
    ("COc1cc(C(=O)/C(C#N)=N/Nc2ccccc2F)cc(OC)c1OC", "HepG2", 5.68),
    ("COc1cc(C(=O)/C(C#N)=N/Nc2ccc(F)cc2)cc(OC)c1OC", "HepG2", 5.01),
]

(1) COc1cc(C(=O)/C(C#N)=N/Nc2cccc(C)c2)cc(OC)c1OC
(2) COc1cc(C(=O)/C(C#N)=N/Nc2ccc(C(F)(F)F)cc2)cc(OC)c1OC
Exam item: Larger number for pIC50: 1 , or 2 ? Answer by stating the label of the chosen item.
Marked response: 2
(2: 5.57, 1: 5.21)

###

Test system: HCT-116
protocolDescription: Antiproliferative activity against human HCT116 cells after 72 hrs by MTT assay
Assay type: functional, cell-based
conditionSet: HCT-116, 72 h
pIC50: −log10 of the molar value.
resultType: pIC50

Worked examples follow.
# molecule, numericReadout
records = [
    ("COc1ccc(N/N=C(\\C#N)C(=O)c2cc(OC)c(OC)c(OC)c2)cc1O", 6.09),
    ("COc1cc2c(c(OC)c1OC)-c1ccc(OC)c(=O)cc1[C@@H](NC(C)=O)CC2", 7.58),
]

(1) COc1cc(C(=O)/C(C#N)=N/Nc2ccc(C)cc2)cc(OC)c1OC
(2) COc1ccc(N/N=C(\C#N)C(=O)c2cc(OC)c(OC)c(OC)c2)cc1
Exam item: // select label with min value of measured pIC50 from [ 1 , 2 ] Pick one and reply with its label.
Marked response: 2
(2: 5.50, 1: 6.06)

###

Tested on: A2780S
protocolDescription: Antiproliferative activity against human A2780S cells
Format: functional, cell-based
resultType: IC50 (µM)
// units = µM; emit number, no label

Exam item: Identify the reported IC50 for the following entry. COc1ccc(N/C=C(\C#N)C(=O)c2cc(OC)c(OC)c(OC)c2)cc1
Marked response: 1.88

###

Test system: HepG2
protocolDescription: Antiproliferative activity against human HepG2 cells
Assay type: functional, cell-based
resultType: pIC50
Lab note: report pIC50 as minus log10 of the concentration in molar units, number only.

Exam item: Please give measured pIC50 of the following entry: COc1ccc(N/C=C(\C#N)C(=O)c2cc(OC)c(OC)c(OC)c2)cc1
Marked response: 5.92

###

Test system: HepG2
protocolDescription: Antiproliferative activity against human HepG2 cells after 72 hrs by MTT assay
Format: functional, cell-based
conditionSet: HepG2, 72 h
pIC50: −log10 of the molar value.
resultType: pIC50

Below: 2 compounds and their reported pIC50.
# molecule, experimentalTarget, pIC50
data = [
    ("CCOc1ccc(N/N=C(\\C#N)C(=O)c2cc(OC)c(OC)c(OC)c2)cc1", "HepG2", 5.18),
    ("COc1cc(C(=O)/C(C#N)=N/Nc2ccccc2)cc(OC)c1OC", "HepG2", 5.28),
]

(A) COc1cccc(N/N=C(\C#N)C(=O)c2cc(OC)c(OC)c(OC)c2)c1
(B) COc1cc(C(=O)/C(C#N)=N/Nc2ccc(C)cc2)cc(OC)c1OC
Exam item: Which value of pIC50 is numerically greater: that of A or that of B ? Kindly state the label of the option you pick.
Marked response: B
